- Test system: MDA-MB-231 breast
- assay_details: NCI-60 one-dose screen, 48 h (100 = growth as untreated, 0 = no growth, -100 = all killed)
- conditions_used: 10 µM unless noted
Compounds without any hit were thinned out: in the full panel of roughly 83,000, 20% have a hit.
Give growth for every item shown.
One number for each entry, in %.

Recorded growth, per entry:
CC12CCC(CC1)C(C)(C)O2 = 100
c1ccc(N(c2ccccc2)c2ccccc2)cc1 = 120

Now turn to the next compound.
Report growth for Fc1ccccc1Nc1n[nH]c(=S)s1
109

###

- Tested on: UO-31 renal
- assay_details: NCI-60 one-dose screen, 48 h
- conditions_used: 10 µM
About 83,000 compounds went through this panel and 20% of them were active in at least one assay; those are over-represented in the sample as a whole. Active and inactive are the calls of the source. How the source made its calls: active means growth percent below 10; inactive means the rest.
Choose the fitting class; nothing outside active, inactive is accepted.

Take a look at these entries with their results.
Cc1[nH]c(-c2nc3ccccc3[nH]2)c(C)c1C(=O)NC(C)C1CCCCC1 (centres undefined) = inactive
CC(C)(C)c1cc(NC(=O)Cc2ccc(-c3cnc4cc(-c5cnn(CCN6CCOCC6)c5)ccc4n3)cc2)no1 = active
CCc1ccccc1-n1c(N)c(C#N)c(-c2ccc(OC)c(OC)c2)c(C#N)c1=O = inactive

Now let's try a different one.
Write down the call the test reported for this compound. Item: CC#C[C@]1(O)CC[C@H]2[C@@H]3CCC4=CC(=O)CCC4=C3[C@@H](c3ccc4c(c3)OCO4)C[C@@]21C
inactive
